TARGET: actin filaments (actin from Gallus gallus skeletal muscle) (Gallus gallus (chicken), UniProt P68139 1-377)
ASSAY SUMMARY: co-sedimentation; 4 µM EGFP–SFM peptide with 0–200 µM actin filaments in F buffer, 1 h at room temperature, 100,000g for 30 min; pellet read by anti-EGFP western blot; one-site specific binding fit; apparent
CONDITION DETAILS: both partners purified
OBSERVATION TYPE: pKd
Expect pKd as a plain number equal to -log10 of the molar concentration.

Value lookup for pKd; key = IQEWGVSVRTLRGNFESASGPLC (Limits from translated primers P11/P12 (7 residues either side of SFM 652-660). Construct also has an initiator Met before the peptide and a C-terminal linker-EGFP-TEV-His, left out.) [EGFP-tagged ESPNL SFM peptide] 5.22
